Test system: Leishmania infantum
assay: Leishmanicidal activity against axenic amastigote stage of Leishmania infantum after 24 hrs by propidium iodide staining-based flow cytometric analysis
Type: functional, organism-based
recordedEndpoint: IC50 (nM)
Supply the numeric figure in nM, leaving out any unit text.

O=S(=O)(Nc1ccc([Se][Se]c2ccc(NS(=O)(=O)c3ccc(F)cc3)cc2)cc1)c1ccc(F)cc1    1470

Recorded IC50 of O=S(=O)(Nc1ccc([Se][Se]c2ccc(NS(=O)(=O)c3ccccc3)cc2)cc1)c1ccccc1 , please.
1640

Recorded IC50 of O=S(=O)(Nc1ccc([Se][Se]c2ccc(NS(=O)(=O)c3ccc4ccccc4c3)cc2)cc1)c1ccc2ccccc2c1 , please.
5650

Recorded IC50 of Cn1ccnc1S(=O)(=O)Nc1ccc([Se][Se]c2ccc(NS(=O)(=O)c3nccn3C)cc2)cc1 , please.
1050

----------
Tested on: Leishmania infantum
assay: Leishmanicidal activity against axenic amastigote stage of Leishmania infantum after 24 hrs by propidium iodide staining-based flow cytometric analysis
Type: functional, organism-based
recordedEndpoint: IC50 (µM)
Supply the numeric figure in µM, leaving out any unit text.

Examples from the recorded data:
O=S(=O)(Nc1ccc([Se][Se]c2ccc(NS(=O)(=O)c3ccccc3Cl)cc2)cc1)c1ccccc1Cl    1.17
O=S(=O)(Nc1ccc([Se][Se]c2ccc(NS(=O)(=O)c3ccc(Br)cc3)cc2)cc1)c1ccc(Br)cc1    2.8
Cc1ccc(S(=O)(=O)Nc2ccc([Se][Se]c3ccc(NS(=O)(=O)c4ccc(C)cc4)cc3)cc2)cc1    1.4

Here is the next item to consider.
Recorded IC50 of O=S(=O)(Nc1ccc([Se][Se]c2ccc(NS(=O)(=O)c3ccc(Cl)cc3)cc2)cc1)c1ccc(Cl)cc1 , please.
3.63

----------
Test system: Leishmania infantum
assay: Leishmanicidal activity against axenic amastigote stage of Leishmania infantum after 24 hrs by propidium iodide staining-based flow cytometric analysis
Type: functional, organism-based
recordedEndpoint: pIC50
Worth noting: pIC50 values are minus log10 of concentrations stated in mol/L.

N#Cc1ccc(S(=O)(=O)Nc2ccc([Se][Se]c3ccc(NS(=O)(=O)c4ccc(C#N)cc4)cc3)cc2)cc1    5.75
O=S(=O)(Nc1ccc([Se][Se]c2ccc(NS(=O)(=O)c3ccccc3F)cc2)cc1)c1ccccc1F    5.78
O=S(=O)(Nc1ccc([Se][Se]c2ccc(NS(=O)(=O)c3cccs3)cc2)cc1)c1cccs1    5.81

Here is the next item to consider.
Recorded pIC50 of O=S(=O)(Nc1ccc([Se][Se]c2ccc(NS(=O)(=O)c3cccc4cccnc34)cc2)cc1)c1cccc2cccnc12 , please.
6.08

----------
Tested on: Leishmania infantum
assay: Leishmanicidal activity against axenic amastigote stage of Leishmania infantum after 24 hrs by propidium iodide staining-based flow cytometric analysis
Format: functional, organism-based
We begin with a simple list: items and their reported IC50.
Supply the numeric figure in nM, leaving out any unit text.

Examples from the recorded data:
O=S(=O)(Nc1ccc([Se][Se]c2ccc(NS(=O)(=O)c3ccc(C(F)(F)F)cc3)cc2)cc1)c1ccc(C(F)(F)F)cc1    2010
O=[N+]([O-])c1ccc(S(=O)(=O)Nc2ccc([Se][Se]c3ccc(NS(=O)(=O)c4ccc([N+](=O)[O-])cc4)cc3)cc2)cc1    3740
COc1ccc(S(=O)(=O)Nc2ccc([Se][Se]c3ccc(NS(=O)(=O)c4ccc(OC)cc4)cc3)cc2)cc1    1300

Lookup: IC50 / Leishmania infantum / O=S(=O)(Nc1ccc([Se][Se]c2ccc(NS(=O)(=O)c3ccc(-c4ccccc4)cc3)cc2)cc1)c1ccc(-c2ccccc2)cc1
13800
